Test: Bioavailability studies
Type: in vivo, Male mice (C57BL/6 or CD1) or Wistar rats
Conditions: male, plasma; single intravenous dose 1 mg/kg and single oral dose 10 mg/kg; species per compound not given
metric: bioavailability (%)
Respond numerically; units are % and should not be typed.

## Task May I ask what bioavailability has been recorded for CCCCC1CN(c2ccccc2)c2cc(SCC)c(OCC3(C(=O)O)CC3)cc2S(=O)(=O)N1C (single isomer, unassigned) [8, enantiomer 1] ?
## Result 40

## Task Fill blank: measured bioavailability of the compound CCCCC1CN(c2ccccc2)c2cc(SC)c(OCC(C)(C)C(=O)O)cc2S(=O)(=O)N1C (single isomer, unassigned) [2, enantiomer 2] is ____.
## Result 100

## Task Look at this compound and give its reported bioavailability. CCCCC1CN(c2ccc(F)cc2)c2cc(SC)c(OCC(C)(C)C(=O)O)cc2S(=O)(=O)N1C (single isomer, unassigned) [14, enantiomer 2]
## Result 100

## Task If you can, please state the reported bioavailability value of CCCCC1CN(c2ccccc2)c2cc(SC)c(OCC3(C(=O)O)CC3)cc2S(=O)(=O)N1C (single isomer, unassigned) [4, enantiomer 2] .
## Result 17
